Recorded Ki values for a group of compounds are listed next.
biological target: hMOR-1 (Homo sapiens, UniProt P35372); construct: purchased Amersham Biosciences; host or cells: stably transfected CHO cells (membrane preparation); assay: Opioid receptor competitive binding assay, MOR (3H-DAMGO); settings: Ki MOR, Table 4; 3H-DAMGO, hMOR-1 stably transfected into CHO cells; errors 95% confidence interval
Hi! Could you send only the number? It should be in nM, unit omitted.

# count of solved cases: 2
Tell me reported Ki for Cc1cc(O)cc(C)c1CC(N)C(O)C/C=C/C(O)C(Cc1ccccc1)C(=O)NCCc1ccccc1 (single isomer, unassigned) [(S,R,R,R)-26] , tested with hMOR-1 (Homo sapiens, UniProt P35372).
0.72

API: value(readout= Ki, system= hMOR-1 (Homo sapiens, UniProt P35372), query= Cc1cc(O)cc(C)c1CC(N)C(O)C/C=C/C(O)C(Cc1ccccc1)C(=O)NCCc1ccccc1 (single isomer, unassigned) [(S,S,R,R)-26] )
0.37

Now, please, on to the next compound.
Please provide the recorded Ki for Cc1cc(O)cc(C)c1CC(N)C(O)C/C=C/C(O)C(Cc1ccccc1)C(=O)NC(Cc1ccccc1)C(N)=O (single isomer, unassigned) [(S,S,S,R)-25] , tested on hMOR-1 (Homo sapiens, UniProt P35372).
0.17

---

target: hMOR-1 (Homo sapiens, UniProt P35372); construct: purchased Amersham Biosciences; host or cells: stably transfected CHO cells (membrane preparation); experiment: Opioid receptor competitive binding assay, MOR (3H-DAMGO); conditions: Ki MOR, Table 3; 3H-DAMGO, hMOR-1 stably transfected into CHO cells; errors 95% confidence interval
READOUT LABEL: pKi
// pKi: -log10(molar conc.)

Suppose we examine the compound NC(=O)C(Cc1ccccc1)NC(=O)C(Cc1ccccc1)C(O)/C=C/CC(O)C(N)Cc1ccc(O)cc1 (single isomer, unassigned) [(S,S,R,R)-2] ; what pKi value has been reported?
7.60

Please look up its pKi: NC(=O)C(Cc1ccccc1)NC(=O)C(Cc1ccccc1)C(O)/C=C/CC(O)C(N)Cc1ccc(O)cc1 (single isomer, unassigned) [(S,R,S,R)-2]
6.80

Consider now this further compound.
Any idea what its pKi is? The compound is NC(=O)C(Cc1ccccc1)NC(=O)C(Cc1ccccc1)C(O)CCCC(O)C(N)Cc1ccc(O)cc1 (single isomer, unassigned) [(S,S,S,R)-6]
7.01

---

target: KOR (Cavia porcellus, UniProt P41144); construct: from tissue; host or cells: guinea pig cerebellum preparation; test: Opioid receptor competitive binding assay, KOR (3H-U-69,593); set-up: species or system guinea pig; conditions: Ki KOR, Table 9; 3H-U-69,593, guinea pig cerebellum preps; errors two standard deviations
API: label(entry) gives Satisfied if the entry's Ki is strictly smaller than 1000 nM; on equality or larger values it gives Not satisfied.

Item NC(=O)C(Cc1ccccc1)NC(=O)C(Cc1ccccc1)C(O)/C=C/CC(O)C(N)Cc1ccc(O)cc1 (single isomer, unassigned) [(S,S,S,R)-2] : Ki beneath 1000 nM, strictly?
Not satisfied

Report whether reported Ki is lower than 1000 nM (strictly) for C=CC(O)C(Cc1ccccc1)NC(=O)C(Cc1ccccc1)C(O)/C=C/CC(O)C(N)Cc1ccc(O)cc1 (single isomer, unassigned) [(S,S,R,R)-12]
Satisfied

Does the reported Ki of the following compound sit strictly below 1000 nM? NC(Cc1ccc(O)cc1)C(O)C/C=C/C(O)C(Cc1ccccc1)C(=O)NCCc1ccccc1 (single isomer, unassigned) [(S,S,R,R)-10]
Not satisfied

Others:
Would you kindly verify if Ki of NC(Cc1ccc(O)cc1)C(O)C/C=C/C(O)C(Cc1ccccc1)C(=O)NC(CO)Cc1ccccc1 (single isomer, unassigned) [(S,S,R,R)-11] is strictly less than 1000 nM?
Not satisfied

Record NC(=O)C(Cc1ccccc1)NC(=O)C(Cc1ccccc1)C(O)/C=C/CC(O)C(N)Cc1ccc(O)cc1 (single isomer, unassigned) [(S,R,R,R)-2] : is its Ki strictly below 1000 nM?
Not satisfied

Given NC(=O)C(Cc1ccccc1)NC(=O)C(Cc1ccccc1)C(O)/C=C/CC(O)C(N)Cc1ccc(O)cc1 (single isomer, unassigned) [(S,S,R,R)-2] , is recorded Ki strictly lower than 1000 nM?
Not satisfied

Reference source for all entries: patent US7223888B2
